// data source = patent US20210277110A1

Target: T1, Extracellular domain of cyno PD1 (cPD1-ECD) (Macaca fascicularis (cynomolgus))
T1 construct: Expressed with a hexahistidine tag or as Fc fusion; also called cynoPD1-ECD; cynoPD-1-ECD
T1 chain: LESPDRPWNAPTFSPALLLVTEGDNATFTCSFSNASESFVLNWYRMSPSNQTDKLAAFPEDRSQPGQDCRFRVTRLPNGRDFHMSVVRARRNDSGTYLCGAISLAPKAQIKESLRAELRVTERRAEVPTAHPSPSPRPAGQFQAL
Assay: SPR ProteOn, cynoPD1-ECD; RANGE low replicate
measured_quantity: kon (M⁻¹ s⁻¹)
Please respond with the number in M⁻¹ s⁻¹ and leave the unit unwritten.

In the examples that follow, each entry is paired with its recorded kon.
INSERT INTO assay_data (binder, meas_value) VALUES
  ('PD1B195 (antibody, V domains shown, also called PD1H170/PD1L67) VH: QVQLVQSGAEVKKPGSSVKVSCKASGGTFSSYAISWVRQAPGQGLEWMGGIIPIFDTANYAQKFQGRVTITADESTSTAYMELSSLRSEDTAVYYCARPGLAAAYDTGSLDYWGQGTLVTVSS VL: EIVLTQSPATLSLSPGERATLSCRASQSVDSYLAWYQQKPGQAPRLLIYDASNRATGIPARFSGSGSGTDFTLTISSLEPEDFAVYYCQQREYWPLTFGQGTKVEIK', 430000),
  ('PD1B11 (antibody, V domains shown, Tested as IgG2sigma/kappa; also called PD1H3/PH9L3) VH: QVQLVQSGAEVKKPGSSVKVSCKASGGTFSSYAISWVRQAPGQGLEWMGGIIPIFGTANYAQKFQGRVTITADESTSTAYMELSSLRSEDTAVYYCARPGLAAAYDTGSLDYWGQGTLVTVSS VL: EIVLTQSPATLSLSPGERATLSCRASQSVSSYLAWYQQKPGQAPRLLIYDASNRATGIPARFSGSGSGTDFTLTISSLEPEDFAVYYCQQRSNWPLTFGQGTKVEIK', 349000),
  ('PD1B71 (antibody, V domains shown, Tested as IgG2sigma/kappa; also called PD1H108/PH9L3) VH: QVQLVQSGAEVKKPGSSVKVSCKASGGTFSSYAISWVRQAPGQGLEWMGGIIPIFGTANYAQKFQGRVTITADESTSTAYMELSSLRSEDTAVYYCARGTLDRTGHLDYWGQGTLVTVSS VL: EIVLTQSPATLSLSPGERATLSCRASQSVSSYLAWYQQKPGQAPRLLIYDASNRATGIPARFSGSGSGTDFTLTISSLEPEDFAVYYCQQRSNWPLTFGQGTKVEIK', 337000);

For the next question, use this binder.
Could you tell me which kon is on file for PD1B70 (antibody, V domains shown, Tested as IgG2sigma/kappa; also called PD1H107/PH9L3) VH: QVQLVQSGAEVKKPGSSVKVSCKASGGTFSSYAISWVRQAPGQGLEWMGGIIPIFGTANYAQKFQGRVTITADESTSTAYMELSSLRSEDTAVYYCARGYVRATGMLDYWGQGTLVTVSS VL: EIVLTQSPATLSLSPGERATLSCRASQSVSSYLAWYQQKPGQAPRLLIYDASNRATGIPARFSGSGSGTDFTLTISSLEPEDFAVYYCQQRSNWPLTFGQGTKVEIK ?
225000
